Where these numbers come from: patent US9359298B2

Please provide measured IC50 for the entries that follow.
System: Influenza A virus (hanfang359/95)
Assay: Determination of anti-influenza virus activity (CPE in MDCK cells)
Type: cell-based
Conditions: Influenza A virus, MDCK, 36 h
Numbers only, in µg/mL.

Noted for COc1cc(/C=C/c2ccccc2)c(C(=O)NC(=N)N)c(O)c1CC=C(C)C [Compound 23b] : its IC50 reads 0.13

Batch of 5 compounds: report IC50 for each.
1. COc1cc(/C=C/c2cc(OC)c(OC)c(OC)c2)c(C(=O)O)c(O)c1CC=C(C)C [Compound 1u]
2. COc1cc(/C=C/c2ccc(O)cc2)cc(O)c1CC=C(C)C [Compound 10q]
3. COC(=O)c1c(/C=C/c2ccncc2)cc(OC)c(CC=C(C)C)c1O [Compound 8r]
4. COc1cc(/C=C/c2cc(O)ccn2)cc(O)c1CC=C(C)C [10a′]
5. COc1cc(/C=C/c2ccc(O)cc2)c(C(=O)O)c(O)c1CC=C(C)C [Compound 1q]

1. 0.21
2. 1.39
3. 4.65
4. 0.17
5. 2.35

Batch of 7 compounds: report IC50 for each.
1. COc1cc(/C=C/C2CCCCC2)cc(O)c1CC=C(C)C [Compound 10p]
2. C=CCc1c(O)cc(/C=C/c2ccccc2)cc1OC [10h′, 2-allyl-3-methoxy-5-[(E)-styryl]phenol]
3. NC(=O)c1ncn([C@@H]2O[C@H](CO)[C@@H](O)[C@H]2O)n1 [RBV, Ribavirin, reference compound]
4. COC(=O)c1c(/C=C/c2cc(OC)c(OC)c(OC)c2)cc(OC)c(CC=C(C)C)c1O [Compound 8u]
5. COC(=O)c1c(/C=C/c2ccccc2)cc(OC)c(CC=C(C)C)c1OCC1CNCCN1 (centres unmarked) [Compound 26d]
6. COc1cc(/C=C/CCc2ccccc2)c(C(=O)O)c(O)c1CC=C(C)C [Compound 1l]
7. COc1cc(/C=C/c2ccccn2)c(C(=O)O)c(O)c1CC=C(C)C [Compound 1t]

[2.65, 0.09, 0.59, 0.11, 1.36, 0.36, 0.34]

Batch of 6 compounds: report IC50 for each.
1. COc1cc(/C=C/c2ccccc2)c(C(=O)NC(N)=O)c(O)c1CC=C(C)C [Compound 23a]
2. COc1cc(/C=C/c2ccccn2)cc(O)c1CC=C(C)C [Compound 10x]
3. COc1cc(/C=C/c2ccncc2)c(C(=O)O)c(O)c1CC=C(C)C [Compound 1r]
4. COc1cc(/C=C/c2cc(O)cc(O)n2)cc(O)c1CC=C(C)C [10e′]
5. COc1cc(/C=C(\C(=O)O)c2ccccc2)c(C(=O)O)c(O)c1CC=C(C)C [Compound 1s]
6. Oc1cc(O)cc(/C=C/Cc2ccccc2)c1 [Compound 21b]

1. 0.09
2. 0.09
3. 6.36
4. 0.21
5. 0.54
6. 2.54

----------
System: HIV-1 III B virus
Assay: Anti-HIV activity assay (P24 antigen in MT-4 cells)
Type: cell-based
Details: Human immunodeficiency virus 1, MT4, 96 h, MT-4 cells, HIV-1 III B 100TCID50, 96 h, P24 antigen; read-out: HIV IC50
Binarize IC50 at 2 µg/mL; below is condition met, at or above is condition not met.

Is the reported IC50 for COc1cc(/C=C(\C(=O)O)c2ccccc2)c(C(=O)O)c(O)c1CC=C(C)C [Compound 1s] strictly below 2 µg/mL? condition met

Is the reported IC50 for COC(=O)c1c(/C=C/c2cc(OC)ccn2)cc(OC)c(CC=C(C)C)c1O [Compound 8v] strictly below 2 µg/mL? condition met

Is the reported IC50 for COc1cc(/C=C/c2ccccc2)c(C(=O)NC2CCNCC2)c(O)c1CC=C(C)C [Compound 9f] strictly below 2 µg/mL? condition met

Is the reported IC50 for COC(=O)c1c(/C=C/c2ccccc2)cc(OC)c(CC=C(C)C)c1OC(C)=O [Compound 24g] strictly below 2 µg/mL? condition met

Further cases:
Is the reported IC50 for COc1cc(/C=C/c2cccs2)c(C(=O)O)c(O)c1CC=C(C)C [Compound 1j] strictly below 2 µg/mL? condition met

Is the reported IC50 for COc1cc(/C=C/Cc2ccccc2)c(C(=O)O)c(O)c1CC=C(C)C [Compound 1k] strictly below 2 µg/mL? condition not met

Is the reported IC50 for COc1cc(/C=C/c2ccccc2)cc(OC(C)=O)c1CC=C(C)C [Compound 24i] strictly below 2 µg/mL? condition not met

Is the reported IC50 for COc1cc(/C=C/c2ccccc2)c(C(=O)O)c(OC(=O)C(=O)O)c1CC=C(C)C [Compound 31b] strictly below 2 µg/mL? condition not met
